Test system: foxtail, giant (giant foxtail, Setaria faberii)
Assay: Test A greenhouse herbicide test, pre- and postemergence
Type: in vivo
Conditions: Postemergence, 500 g ai/ha; 0 to 100 scale, 0 is no effect, 100 is complete control
Source text: […]
quantity_name: Foxtail, Giant plant response rating
Number only, no unit.

Lab request: please report Foxtail, Giant plant response rating under test system foxtail, giant (giant foxtail, Setaria faberii) for Cc1ccc2ccccc2c1-c1c(O)c(Br)nn(C)c1=O
90

Lab request: please report Foxtail, Giant plant response rating under test system foxtail, giant (giant foxtail, Setaria faberii) for Cc1ccc2ccccc2c1-c1c(OC(=O)OC(C)C)c(C)nn(C)c1=O
90

Lab request: please report Foxtail, Giant plant response rating under test system foxtail, giant (giant foxtail, Setaria faberii) for Cc1nn(C)c(=O)c(-c2cccc3ccc(C4CC4)cc23)c1O
20

Lab request: please report Foxtail, Giant plant response rating under test system foxtail, giant (giant foxtail, Setaria faberii) for COc1nn(C)c(=O)c(-c2c(C(F)F)ccc3ccccc23)c1O
70

Lab request: please report Foxtail, Giant plant response rating under test system foxtail, giant (giant foxtail, Setaria faberii) for Cc1ccc2ccccc2c1-c1c(O)c(I)nn(C)c1=O
90

Lab request: please report Foxtail, Giant plant response rating under test system foxtail, giant (giant foxtail, Setaria faberii) for Cc1nn(C)c(=O)c(-c2c(C)sc3ccc(Br)cc23)c1O
90

Lab request: please report Foxtail, Giant plant response rating under test system foxtail, giant (giant foxtail, Setaria faberii) for Cc1ccc2c(c1)c(-c1c(O)c(C)nn(C)c1=O)c(C)n2C
10
